Listing of recorded Th-T fluorescence, mean of three wells by entry.
target: Aβ42 (Homo sapiens, UniProt P05067); assay: Th-T (thioflavin-T) assay of Aβ42 aggregation; assay type: biochemical; details: time course, reading M64
Sequence (P05067 672-713): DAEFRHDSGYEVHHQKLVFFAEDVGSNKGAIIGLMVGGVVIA
# answer = number (no unit)

Recorded results for 5 molecules are shown here.
C=C1CCC2C(C)(CC(=O)C=C(C)C)C(O)CCC2(C)C1Cc1c(OC)oc(C)c(C)c1=O (stereo not drawn) [Compound 25]; 3.6972
CC(C)=CCC/C(C)=C/CC/C(C)=C/CC/C(C)=C/Cc1c(O)c(C)c(C)oc1=O [Compound 2]; 2.936
C=C1CC[C@H]2[C@]3(C)C[C@@H](C=C(C)C)O[C@H]3CC[C@]2(C)[C@@H]1Cc1c(OC)oc(CO)c(C)c1=O [Compound 17]; 3.667
C=C1CC[C@@H]2[C@](C)(CC[C@H]3O[C@H](C=C(C)C)C[C@@]23C)[C@@H]1Cc1c(O)c(C)c(C)oc1=O [Compound 10, higginsianin A]; 3.089
C=C1CCC2C(C)(CCC=C(C)C)C(=O)CCC2(C)C1Cc1c(O)c(C)c(C)oc1=O (stereo not drawn) [Compound 8]; 2.223

Read the next record carefully.
Item C=C1CCC2C(C)(CC(=O)C=C(C)C)C(O)CCC2(C)C1Cc1c(OC)oc(CO)c(C)c1=O (stereo not drawn) [Compound 19] has what recorded Th-T fluorescence, mean of three wells? 3.635

----------
biological target: Aβ42 (Homo sapiens, UniProt P05067); experiment: Th-T (thioflavin-T) assay of Aβ42 aggregation; format: biochemical; settings: column suffix _50; measurement M25
Rule: Th-T fluorescence, mean of three wells (Fig. 7a) below 0.8 gives 1.0, anything at or above gives 0.0.

Would you kindly verify if Th-T fluorescence, mean of three wells (Fig. 7a) of C=C1CC[C@@H]2[C@](C)(CC[C@H]3O[C@H](C=C(C)C)C[C@@]23C)[C@@H]1Cc1c(OC)oc(CO)c(C)c1=O is strictly less than 0.8? 0.0

Would you kindly verify if Th-T fluorescence, mean of three wells (Fig. 7a) of C=C1CC[C@@H]2[C@](C)(CC[C@H]3O[C@H](C=C(C)C)C[C@@]23C)[C@@H]1Cc1c(OC)oc(CO)c(C(=O)OC)c1=O is strictly less than 0.8? 1.0

Would you kindly verify if Th-T fluorescence, mean of three wells (Fig. 7a) of C=C1CCC2C(C)(CCC=C(C)C)C(O)CCC2(C)C1Cc1c(OC)oc(CO)c(C(=O)OC)c1=O (centres unmarked) is strictly less than 0.8? 1.0

Would you kindly verify if Th-T fluorescence, mean of three wells (Fig. 7a) of C=C1CCC2C(C)(CCC=C(C)C)C(O)CCC2(C)C1Cc1c(OC)oc(C)c(C(=O)OC)c1=O (centres unmarked) is strictly less than 0.8? 1.0

Would you kindly verify if Th-T fluorescence, mean of three wells (Fig. 7a) of C=C1CCC2C(C)(CCC=C(C)C)C(O)CCC2(C)C1Cc1c(OC)oc(CO)c(C)c1=O (centres unmarked) is strictly less than 0.8? 0.0

----------
Listing of recorded Th-T fluorescence, mean of three wells by entry.
molecular target: Aβ42 (Homo sapiens); test: Th-T (thioflavin-T) assay of Aβ42 aggregation; assay type: biochemical; settings: Supplementary Fig. 47; reading M137
# answer = number (no unit)

C=C1CCC2C(C)(CCC=C(C)C)C(O)CCC2(C)C1Cc1c(OC)oc(C)c(C)c1=O (stereo not drawn) [Compound 15, viridoxin A hydrolysate]; 3.349
C=C1CCC2C3(C)CC(C=C(C)C)OC3CCC2(C)C1Cc1c(OC)oc(C)c(C)c1=O (stereo not drawn) [Compound 23]; 3.7533
C=C1CCC2C(C)(CC(=O)C=C(C)C)C(O)CCC2(C)C1Cc1c(O)c(C)c(C)oc1=O (stereo not drawn) [Compound 7]; 3.399
C=C1CC[C@H]2[C@]3(C)C[C@H](C=C(C)C)O[C@H]3CC[C@]2(C)[C@@H]1Cc1c(OC)oc(C)c(C)c1=O [Compound 24]; 3.87
CC(C)=CCC/C(C)=C/CC/C(C)=C/CC/C(C)=C/Cc1c(O)c(C)c(C)oc1=O [Compound 2]; 2.914

Item C=C1CCC2C(C)(CC(=O)C=C(C)C)C(O)CCC2(C)C1Cc1c(OC)oc(C)c(C)c1=O (stereo not drawn) [Compound 25] has what recorded Th-T fluorescence, mean of three wells? 3.5763

Item C=C1CC[C@H]2[C@]3(C)C[C@@H](C=C(C)C)O[C@H]3CC[C@]2(C)[C@@H]1Cc1c(OC)oc(CO)c(C)c1=O [Compound 17] has what recorded Th-T fluorescence, mean of three wells? 3.585

Item C=C1CC[C@@H]2[C@](C)(CC[C@H]3O[C@H](C=C(C)C)C[C@@]23C)[C@@H]1Cc1c(O)c(C)c(C)oc1=O [Compound 10, higginsianin A] has what recorded Th-T fluorescence, mean of three wells? 2.995

Data credit: paper PMC7156458
